Target: recombinant human CK2 (RRββ-holoenzyme) (Homo sapiens)
Construct: purchased Millipore
Sequence (P68400 whole entry): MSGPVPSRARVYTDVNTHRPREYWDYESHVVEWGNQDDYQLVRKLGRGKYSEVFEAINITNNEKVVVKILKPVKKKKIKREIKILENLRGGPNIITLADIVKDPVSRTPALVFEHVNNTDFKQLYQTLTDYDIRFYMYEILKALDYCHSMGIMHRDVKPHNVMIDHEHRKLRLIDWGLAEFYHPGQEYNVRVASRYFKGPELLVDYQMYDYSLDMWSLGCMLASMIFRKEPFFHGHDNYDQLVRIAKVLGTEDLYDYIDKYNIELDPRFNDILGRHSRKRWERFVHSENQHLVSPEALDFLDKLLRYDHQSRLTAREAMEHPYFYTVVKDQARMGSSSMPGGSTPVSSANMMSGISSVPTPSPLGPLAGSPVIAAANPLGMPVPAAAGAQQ
Sequence (P67870 whole entry partner): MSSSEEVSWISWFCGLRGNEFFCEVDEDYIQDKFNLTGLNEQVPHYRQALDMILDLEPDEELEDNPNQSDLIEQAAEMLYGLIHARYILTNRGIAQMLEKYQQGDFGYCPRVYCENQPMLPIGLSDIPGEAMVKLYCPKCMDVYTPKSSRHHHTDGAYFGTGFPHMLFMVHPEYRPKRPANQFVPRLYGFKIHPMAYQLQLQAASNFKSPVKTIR
Assay: CK2 Kinase Assay (33P-ATP, substrate peptide RRRDDDSDDD)
Assay type: biochemical
Details: final ATP concentration 15 μM, 10 min at 30° C.; read-out: protein kinase CK2 IC50
VALUE TYPE: pIC50
# pIC50 is unitless: minus log10 of the molar concentration; print number only

Incoming: Report pIC50 for Clc1cccc(Nc2nc3c(nc4ccncn43)c3cnccc23)c1 please.
Outgoing: 7.92

###

Tested on: A375 (melanoma) cancer cells
Experiment: In vitro cytotoxic activity MTT assay, A375
Format: cell-based
Settings: Homo sapiens, A-375, cells exposed for 96 hours, read-out: IC50, 50% inhibition of cell proliferation
VALUE TYPE: IC50 (nM)
Quick reminder: number only, in nM, skip the unit.

Incoming: Entry Clc1cccc(Nc2nc3c(nc4ccncn43)c3cnccc23)c1 has what IC50?
Outgoing: 2800

###

System: PC3 (prostate) cancer cells
Assay: In vitro cytotoxic activity MTT assay, PC3
Assay type: cell-based
Settings: Homo sapiens, Prostate cell, cells exposed for 96 hours, read-out: IC50, 50% inhibition of cell proliferation
From the text: Compounds 1-12 were screened for their in vitro cytotoxic activity utilizing a 3-(4,5-dimethyl-thiazol-2-yl)-2,5-diphenyltetrazolium bromide (MTT) assay against selected cancer human cell lines consisting of PC3 (prostate), HCT116 (colon), A375 (melanoma), H1299 (lung), MIAPaCa-2 (pancreas), HL60 (leukemia), MCF7 (breast), MDA-MB-231 (breast) (T. Mosmann, J. Immmol. Meth., 1983, 65, 55-63). […]
VALUE TYPE: IC50 (nM)
Dear colleague, please return just the value in nM, with no unit written.

Incoming: Returns the measured IC50 for the input compound. Input: Clc1cccc(Nc2nc3c(nc4ccncn43)c3cnccc23)c1
Outgoing: 1300
